# Assay protocol: Particle size distribution of ORZY-05 by static automated imaging (Morphologi 4)
# Type: physicochemical
# Study conditions: ORZY-05 particles
Outcome measure: Volume CE diameter D[3,2] (μm)
Numbers only, in μm.

Guide cases for Volume CE diameter D[3,2], answers given:
O=C(O)CC(O)(CC(=O)O)C(=O)O.[O-][n+]1cccc(/C(Cl)=N/OC[C@H](O)CN2CCCCC2)c1 [18-002, arimoclomol citrate] = 17.90
O=C(O)CC(O)(CC(=O)O)C(=O)O.[O-][n+]1cccc(/C(Cl)=N/OC[C@H](O)CN2CCCCC2)c1 [18-004, arimoclomol citrate] = 33.90
O=C(O)CC(O)(CC(=O)O)C(=O)O.[O-][n+]1cccc(/C(Cl)=N/OC[C@H](O)CN2CCCCC2)c1 [17-001, arimoclomol citrate] = 17.70

Dear colleague, could you send me Volume CE diameter D[3,2] for each of the items below? Thanks.
1. O=C(O)CC(O)(CC(=O)O)C(=O)O.[O-][n+]1cccc(/C(Cl)=N/OC[C@H](O)CN2CCCCC2)c1 [18-003, arimoclomol citrate]
2. O=C(O)CC(O)(CC(=O)O)C(=O)O.[O-][n+]1cccc(/C(Cl)=N/OC[C@H](O)CN2CCCCC2)c1 [compound 1001, arimoclomol citrate]
3. O=C(O)CC(O)(CC(=O)O)C(=O)O.[O-][n+]1cccc(/C(Cl)=N/OC[C@H](O)CN2CCCCC2)c1 [compound 1003, arimoclomol citrate]
4. O=C(O)CC(O)(CC(=O)O)C(=O)O.[O-][n+]1cccc(/C(Cl)=N/OC[C@H](O)CN2CCCCC2)c1 [18-001, arimoclomol citrate]
5. O=C(O)CC(O)(CC(=O)O)C(=O)O.[O-][n+]1cccc(/C(Cl)=N/OC[C@H](O)CN2CCCCC2)c1 [17-004, arimoclomol citrate]
6. O=C(O)CC(O)(CC(=O)O)C(=O)O.[O-][n+]1cccc(/C(Cl)=N/OC[C@H](O)CN2CCCCC2)c1 [compound 1002, arimoclomol citrate]
7. O=C(O)CC(O)(CC(=O)O)C(=O)O.[O-][n+]1cccc(/C(Cl)=N/OC[C@H](O)CN2CCCCC2)c1 [compound 1004, arimoclomol citrate]

[A]
1: 35.40; 2: 21.77; 3: 17.52; 4: 19.50; 5: 34.20; 6: 24.24; 7: 20.53

Dear colleague, could you send me Volume CE diameter D[3,2] for each of the items below? Thanks.
1. O=C(O)CC(O)(CC(=O)O)C(=O)O.[O-][n+]1cccc(/C(Cl)=N/OC[C@H](O)CN2CCCCC2)c1 [17-003, arimoclomol citrate]
2. O=C(O)CC(O)(CC(=O)O)C(=O)O.[O-][n+]1cccc(/C(Cl)=N/OC[C@H](O)CN2CCCCC2)c1 [17-002, arimoclomol citrate]

[A]
1: 8.80; 2: 11.40

====

# Assay protocol: Particle size distribution of ORZY-05 by Malvern Mastersizer 3000
# Format: physicochemical
# Study conditions: ORZY-05 particles, Malvern Mastersizer 3000, volume distribution
Outcome measure: D90
Answer shape: numeric part, then the unit.

O=C(O)CC(O)(CC(=O)O)C(=O)O.[O-][n+]1cccc(/C(Cl)=N/OC[C@H](O)CN2CCCCC2)c1 [compound 1003, arimoclomol citrate] = 47.00 μm

Dear colleague, could you send me D90 for each of the items below? Thanks.
1. O=C(O)CC(O)(CC(=O)O)C(=O)O.[O-][n+]1cccc(/C(Cl)=N/OC[C@H](O)CN2CCCCC2)c1 [compound 1004, arimoclomol citrate]
2. O=C(O)CC(O)(CC(=O)O)C(=O)O.[O-][n+]1cccc(/C(Cl)=N/OC[C@H](O)CN2CCCCC2)c1 [compound 2001, arimoclomol citrate]
3. O=C(O)CC(O)(CC(=O)O)C(=O)O.[O-][n+]1cccc(/C(Cl)=N/OC[C@H](O)CN2CCCCC2)c1 [compound 2006, arimoclomol citrate]

[A]
1: 68.00 μm; 2: 112 μm; 3: 77.7 μm
